TARGET OF ASSAY: P2Y6 (Homo sapiens, UniProt Q15077)
Construct: expressed in transfected cells; host or cells: human astrocytoma 1321N1 cells
Sequence (Q15077 whole entry, species assumed): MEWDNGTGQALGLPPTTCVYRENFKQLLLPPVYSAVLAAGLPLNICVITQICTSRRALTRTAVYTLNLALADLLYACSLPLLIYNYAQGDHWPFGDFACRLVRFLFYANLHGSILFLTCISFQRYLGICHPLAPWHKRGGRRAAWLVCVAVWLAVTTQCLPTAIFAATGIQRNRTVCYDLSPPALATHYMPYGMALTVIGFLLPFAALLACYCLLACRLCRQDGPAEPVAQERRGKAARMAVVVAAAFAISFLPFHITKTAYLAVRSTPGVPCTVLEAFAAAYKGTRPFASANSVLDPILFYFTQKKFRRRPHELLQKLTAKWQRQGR
EXPERIMENT NOTES: Intracellular calcium mobilization (FLIPR, Fluo-3 AM) in 1321N1 cells expressing P2Y6
Format: cell-based
STATED CONDITIONS: 1321N1 cells expressing P2Y6, intracellular calcium
ASSAY METRIC: EC50 (µM)
One number for each entry, in µM.

>>> endpoint_result("O=c1ccn([C@@H]2O[C@H](COP(=O)(O)OP(=O)(O)OP(=O)(O)OC[C@@H]3O[C@H](n4ccc(=O)[nH]c4=O)C4OC(Cc5ccccc5)OC43)C(O)C2O)c(=O)[nH]1 (stereo partly drawn) [mono-benzylacetal UP3U]")
0.14
>>> endpoint_result("O=c1ccn([C@@H]2O[C@H](COP(=O)(O)OP(=O)(O)OP(=O)(O)OC[C@H]3O[C@@H](n4ccc(=O)[nH]c4=O)[C@H](O)[C@@H]3O)[C@@H](O)[C@H]2O)c(=O)[nH]1 [UP3U, P^1, P^3-(diuridine 5′-)triphosphate]")
0.92

Let's switch to this molecule now.
Qu. What value of EC50 on P2Y6 (Homo sapiens, UniProt Q15077) does O=c1ccn([C@@H]2O[C@H](COP(=O)(O)OP(=O)(O)O)[C@@H](O)[C@H]2O)c(=O)[nH]1 [UDP, uridine 5′-diphosphate] have?
Ans. 0.5
